# Test system: P. aeruginosa 27853
# Type: cell-based
Where no end group is shown, it is not given here.
measured property: MIC P. aeruginosa 27853

Answered examples (3):
Req: Which MIC P. aeruginosa 27853 is listed for KGLKKLLKLGKKLLKL [SEQ ID NO:3, KGLKKLLKLGKKLLKL] ?
Resp: 8 µg/mL

Req: Which MIC P. aeruginosa 27853 is listed for KGLKKLGKLLKKLLKL [SEQ ID NO:42, KGLKKLGKLLKKLLKL] ?
Resp: 8 to 16 µg/mL

Req: Which MIC P. aeruginosa 27853 is listed for KGLKKGLKLLKKLLKL [SEQ ID NO:2, KGLKKGLKLLKKLLKL] ?
Resp: 8 µg/mL

Continuing:
Req: Which MIC P. aeruginosa 27853 is listed for KGGKKLLKGLKKLLKL [SEQ ID NO:43, KGGKKLLKGLKKLLKL] ?
Resp: 16 µg/mL

Req: Which MIC P. aeruginosa 27853 is listed for KGLKKLLKGLKKLLKL [SEQ ID NO:1, KGLKKLLKGLKKLLKL] ?
Resp: 2 µg/mL

Req: Which MIC P. aeruginosa 27853 is listed for KGLKKLLKLLKKGLKL [SEQ ID NO:5, KGLKKLLKLLKKGLKL] ?
Resp: 8 µg/mL
